The reported measurements were obtained from PubChem BioAssay (NCI).

System: OVCAR-4 ovarian
Assay Explanation: NCI tumour cell line growth inhibition, 48 h
Quantity: TGI

Completed entries (count: 8):
Documented TGI of CCCN(CCSSCCNc1nc(N(C)O)nc(N(C)O)n1)c1nc(N(C)O)nc(N(C)O)n1 : > 100 µM

Measured TGI, COc1cc(Nc2nc3ccc(C(F)(F)F)cc3nc2-c2ccccc2)cc(OC)c1OC : > 100 µM

Lab note: measured TGI of C=CCN(c1cc(OC)c2[nH]cc(C)c2c1[N+](=O)[O-])S(C)(=O)=O was > 100 µM

Item: Oc1cccc(-c2cn3cc(C(F)(F)F)ccc3n2)c1 | TGI: > 100 µM

For reference, reported TGI for O=c1c2ccccc2[nH]c2cc(O)cc(O)c12 stands at > 100 µM

Kindly note the recorded TGI for CC(=O)Oc1ccc(/C=C/C(=O)O[C@H]2CCCC[C@@H]2OC(=O)/C=C/c2ccc(OC(C)=O)c(OC(C)=O)c2)cc1OC(C)=O , which is > 100 µM

Just so you know, measured TGI for CCc1nc2ccc(C(F)(F)F)cc2[nH]c1=O came out at > 100 µM

get_value(item= CCN(CC)CCCOc1cc2c(cc1OC)C(=O)N1CCC[C@H]1C=N2 , readout=TGI) returns > 100 µM

***
# TGI of O=C1NN(c2ccccc2)C(=O)/C1=C/c1ccc(Br)o1 = 29.5 µM

Query CCC(C(=O)c1ccccc1)C(CCCC(=O)Nc1c(C)cccc1C)N=O (centres undefined) yields TGI of > 100 µM

Looking up CC(=O)OCC1OC(O/C=C(\CN=[N+]=[N-])C(C)=O)C(OC(C)=O)C(OC(C)=O)C1OC(C)=O (centres undefined) , I see its TGI listed as 43.1 µM

---

Documented TGI across a set of molecules
Tested on: UO-31 renal
Assay Explanation: NCI tumour cell line growth inhibition, 48 h

The following molecules have reported results that may help.
Measured TGI, S=C(Nc1ccccn1)Nc1ccccc1Cl : > 100 µM

Data point: O=C(CC1C=CCS1(=O)=O)NCc1ccccc1 (configuration not stated) ; TGI = > 100 µM

// sample O=C1c2ccccc2C(=O)c2c(O)ccc(O)c21 , its TGI was > 100 µM

Entry under test: CC1(C)CC2(C)CC1CC2NC(=O)CCN1CCOCC1 (configuration not stated) . Its TGI was > 100 µM

TGI in this record for COc1cc(/C=C2\C(=O)Nc3cccc(Cl)c32)cc(OC)c1OC : > 100 µM

More entries:
For reference, reported TGI for CC(C)CN(CC(C)C)C(=O)C1CCCC[C@@H]1C(=O)O (some centres not stated) stands at > 100 µM

Item: Nc1ccc(Oc2ccc(C34CC5CC6C3CC3CC4C(C5)C6(c4ccc(Oc5ccc(N)c(O)c5)cc4)C3)cc2)cc1O | TGI: 11.2 µM

Entry COc1ccc(N(/C=C/C(=O)C(F)(F)F)CC(=O)c2ccc(Cl)c(Cl)c2)cc1 — recorded TGI = > 100 µM

TGI reading for CC(=O)N1c2ccccc2C(C)C1c1[nH]c2ccccc2c1C (configuration not stated) : 47.6 µM

Documented TGI of NC1CC(=O)c2sccc21 (configuration not stated) : > 100 µM

Sure, the documented TGI for COc1ccccc1/C=C/C(=O)/C=C/c1ccccc1OC is 3.33 µM

Lab book: TGI of NC(=O)CC(N=C1C(=O)OC(C(O)CO)C1=NC(CC(N)=O)C(=O)O)C(=O)O (configuration not stated) noted as > 100 µM

Form field TGI, entry COC(=O)c1ccccc1C1CN=NC12Cc1cccc(C)c1C2=O (configuration not stated) : 83.9 µM

Value of measured TGI for the entry Cn1cnc([N+](=O)[O-])c1Sc1nnnn1-c1ccccc1 : 27.9 µM

The reported value for COc1cc2c(cc1OCCCCOc1ccc(-c3nc4ccccc4s3)cc1)N=C[C@@H]1CCCN1C2=O in terms of TGI is 2.43 µM

Note to self: TGI recorded for CC(=O)/C=C(\O)c1[nH]c(C(=O)O)cc1C1CCN(Cc2ccccc2)C1=O (configuration not stated) was 38.5 µM

// Oc1cccc(-c2cn3cc(C(F)(F)F)ccc3n2)c1 : TGI value = > 100 µM

Looking up CC1(O)CCC2(C#N)CCC1C2O (configuration not stated) , I found its TGI recorded as > 100 µM

Reported TGI ( C=C(C(=O)OC)c1cc2ccccc2n1S(=O)(=O)c1ccccc1 ) = 9.41 µM

Data point: Cc1ccc(S(=O)(=O)N2CCNCCN(S(=O)(=O)c3ccc(C)cc3)CCN(S(=O)(=O)c3ccc(C)cc3)CC2)cc1 ; TGI = > 100 µM

// TGI value for C1=Nc2ccccc2C=Nc2ccccc2C=Nc2ccccc2C=Nc2ccccc21.[Cl-].[Pt+2] : 45.5 µM

response.value for O=[N+]([O-])c1ccc2nc3ccccc3cc2c1 (field: TGI) = 16.7 µM

Record Nc1nc(-c2cccc([N+](=O)[O-])c2)cc(-c2cc(-c3cccc([N+](=O)[O-])c3)nc(N)n2)n1 , field TGI: > 100 µM

get_value(item= O=C(OCc1ccccc1)N1CCN(C(=O)OCc2ccccc2)CCN(C(=O)OCc2ccccc2)CCN(C(=O)OCc2ccccc2)CCN(C(=O)OCc2ccccc2)CC1 , readout=TGI) returns > 100 µM

---

Test system: CCRF-CEM leukemia
Assay Explanation: NCI tumour cell line growth inhibition, 48 h
Quantity: TGI

// recorded TGI for CCCN(CCSSCCNc1nc(N(C)O)nc(N(C)O)n1)c1nc(N(C)O)nc(N(C)O)n1 : > 100 µM

API: the following record is the query input.
Value of TGI reported for the compound CCOC(=O)CSc1[nH]c(NC(=S)Nc2ccccc2)c(C(N)=O)c1C(N)=O is > 10 µM

---

The reader will find reported TGI values listed item by item below.
System: BT-549 breast
Assay Explanation: NCI tumour cell line growth inhibition, 48 h

Consider the worked cases shown below.
For this compound ( COC(=O)c1cc(C(=CCC[C@H]2CC[C@@]3(C)C(CCC4C3CC[C@@]3(C)C4CC[C@@H]3C(C)CCCC(C)C)C2)c2cc(Cl)c(OC(=O)c3ccccc3)c(C(=O)OC)c2)cc(Cl)c1OC(=O)c1ccccc1 (some centres undefined) ), measured TGI is > 10 µM

Reported TGI ( C=C(C)[C@@H]1CCC2=C[C@H](CC(C)=CC3=CC(C)=C(O3)[C@@H]1OC)OC2=O ) = > 100 µM

// CCOC(=O)Nc1nc2c(C)cccc2s1 : TGI value = > 100 µM

Others:
Per the records, this compound ( N#Cc1c(N)nc(N2CCOCC2)c(C#N)c1-c1ccccc1Cl ) has TGI equal to > 100 µM

// TGI lookup, compound = C[C@H](N)C(=O)N1C[C@H](CCCB(O)O)[C@](N)(C(=O)O)C1 , result: > 100 µM

The compound CCSc1nc(N)c2c(-c3ccccc3)c3c(nc2n1)CCC3 showed TGI equal to > 100 µM

---

TGI reference
Tested on: HL-60(TB) leukemia
Assay Explanation: NCI tumour cell line growth inhibition, 48 h

Would you please look over these solved cases?
get_value(item= CS(=O)(=O)OCCCOS(C)(=O)=O , readout=TGI) returns > 100 µM

The recorded TGI for CCOC(=O)C(O)(NC(=O)NC(O)(C(=O)OCC)C(F)(F)F)C(F)(F)F (stereo unspecified) is > 100 µM

Noted for C=C(C)[C@@H]1CCC2=C[C@H](CC(C)=CC3=CC(C)=C(O3)[C@@H]1OC)OC2=O : its TGI reads > 100 µM

CC1(CC2=C(C(=O)NCCO[Si](C)(C)C(C)(C)C)C3(OCCO3)C2=O)OCCO1 yielded TGI of > 100 µM

Looking up CC(C)(C)[C@H]1CCC2(OCCO2)[C@](O)(CCCO)C1 , I found its TGI recorded as > 100 µM

---
Just so you know, measured TGI for O=C(N/N=C\c1ccccc1)Nc1cccc2ccccc12 came out at > 100 µM

Record CC1(C)CC(Nc2ccc(Nc3ccccc3)cc2)CC(C)(C)N1 . Reported TGI: 19.2 µM

GET /value?item= CCCCCCCCCCCCCCCCCCOCC(COP(=O)([O-])OCC[N+](C)(C)C)OC (stereo unspecified) &field=TGI returns 13.6 µM

# TGI (compound: NC(=O)c1nnsc1NC=O ) is > 100 µM

// recorded TGI for COc1ccccc1/C=C/C(=O)/C=C/c1ccccc1OC : 8.45 µM

Looking up Oc1cccc(-c2cn3cc(C(F)(F)F)ccc3n2)c1 , I see its TGI listed as > 100 µM

Value of measured TGI for the entry CC(C)C1CC[C@H](C)C[C@@H]1OC(=O)C(C(=O)O[C@H]1C[C@@H](C)CCC1C(C)C)C(O)[C@@H]1OC(C)(C)O[C@H]1C1COC(C)(C)O1 (stereo partly specified) : 42.2 µM

Measured TGI of O=C(Nc1ccccc1)Nc1cccc(Oc2nnc(Cl)c3ccccc23)c1 : > 25 µM
